Test: method code SF-AS, from DOI: 10.1515/znb-1972-0211, PMID: 4401834
Settings: pH 7.0
assay_readout: logD

INSERT INTO assay_data (smiles_representation, obs_value) VALUES
  ('COC(=O)C(C#N)=NNc1ccc(C(F)(F)F)cc1', 3.79),
  ('CC(C)(C)C(=O)C(C#N)=NNc1cc(Cl)c(Cl)cc1Cl', 5.86),
  ('CCOC(=O)C(C#N)=NNc1cc(Cl)c(Cl)c(Cl)c1', 5.03);

1. CC(C)(C)C(=O)C(C#N)=NNc1ccc(Cl)cc1C(F)(F)F
2. CCOC(=O)/C(C#N)=N\Nc1cc(Cl)cc(Cl)c1
# input Min logD? 1 | 2 # respond with the chosen item's label
# output 2
(2: 3.82, 1: 5.67)
